- Test system: NCI-H23
- measurement description: NCI tumour cell line growth inhibition, 48 h
Calls of active or inactive are those of the source. No stated cut-off is given here; in the data, active = GI50 up to about 1.1 µM and inactive = higher.
assay metric: GI50

Known results for compounds:
Qu. Consider the compound Cc1ccc(S(=O)(=O)NC(=O)NNc2ccc(F)cc2)cc1 and give its measured GI50.
Ans. > 10 µM (inactive)

Qu. Consider the compound O=[N+]([O-])c1ccccc1C1N2CCCCC2[C@@H]2c3[nH]c4ccccc4c3CCN12 (stereo not given in full) and give its measured GI50.
Ans. 14.4 µM (inactive)

Qu. Consider the compound CCN(CC)Cc1c(/C=C\c2cc(OC)c(OC)c(OC)c2)ccc(OC)c1O and give its measured GI50.
Ans. 2.97 µM (inactive)

Qu. Consider the compound COc1cc(C2S/C(=C/c3ccccc3)C(=O)N2c2cc(Cl)c(Cl)cc2Cl)cc(OC)c1OC (stereo not given) and give its measured GI50.
Ans. 43.2 µM (inactive)

Qu. Consider the compound CC1(C)OCC2OC(n3cnc4c(N)nc(Cl)nc43)C(OS(C)(=O)=O)C2O1 (stereo not given) and give its measured GI50.
Ans. > 100 µM (inactive)

Qu. Consider the compound CCN(CC)CCN1CCN=C2c3cc(OC)ccc3Nc3c([N+](=O)[O-])ccc1c32 and give its measured GI50.
Ans. 1.1 µM (active)

Qu. Consider the compound O=C1c2ccccc2NC(c2cc(Cl)cc(Cl)c2O)N1CCc1ccccn1 (stereo not given) and give its measured GI50.
Ans. > 100 µM (inactive)

Qu. Consider the compound O=C1c2ccccc2C(=O)N1C/C=N/NS(=O)(=O)c1ccc(Br)cc1 and give its measured GI50.
Ans. > 100 µM (inactive)

---
Qu. Consider the compound COc1ccc(CN=C(N)N)c2ccccc12 and give its measured GI50.
Ans. 24.3 µM (inactive)

Qu. Consider the compound NC(=O)c1cc2ccccc2o/c1=N/c1ccccc1 and give its measured GI50.
Ans. > 100 µM (inactive)

====

- Test system: SNB-19
- measurement description: NCI tumour cell line growth inhibition, 48 h
Active and inactive are the calls of the source. Rule as the data show it: active = GI50 up to about 1.1 µM and inactive = higher.
API: response.call in active, inactive

Example cases with answers are listed next.
Qu. Identify the outcome logged in this assay for the compound shown: Cc1[nH]c(-c2ccccc2)c2nc(N(C)C)oc(=O)c12
Ans. inactive

Qu. Identify the outcome logged in this assay for the compound shown: Cc1cc(NCCCCCCNc2cc(C)nc3ccc(N)cc23)c2cc(N)ccc2n1
Ans. inactive

Qu. Identify the outcome logged in this assay for the compound shown: O[C@H]1[C@H](O)[C@@H](O)[C@H](O)[C@@H](O)[C@H]1O
Ans. inactive

Qu. Identify the outcome logged in this assay for the compound shown: O=c1oc2c3ccc4ccccc4c3n(Cc3nc4ccccc4[nH]3)c2c2ccccc12
Ans. inactive

Qu. Identify the outcome logged in this assay for the compound shown: NC1=C(Cl)C(=O)c2c(O)ccc(O)c2C1=O
Ans. inactive

Qu. Identify the outcome logged in this assay for the compound shown: FC(F)(F)P1C2C=CC(CC2)C1(F)F (centres undefined)
Ans. inactive

Qu. Identify the outcome logged in this assay for the compound shown: CCCCCCCCCCCCCCCc1nnc(S)[nH]1
Ans. inactive

Qu. Identify the outcome logged in this assay for the compound shown: O=C1OS2(OC(=O)c3cccc4cccc2c34)c2ccccc21 (centres undefined)
Ans. inactive

Qu. Identify the outcome logged in this assay for the compound shown: COc1cc(O)c(C(=O)/C=C/c2ccc(OC)c(OCc3ccccc3)c2)c(OC)c1
Ans. inactive

Qu. Identify the outcome logged in this assay for the compound shown: N#C/C(=C\c1ccc(Cl)cc1)c1nc2ccccc2c(=O)[nH]1
Ans. inactive

---
Qu. Identify the outcome logged in this assay for the compound shown: O=C(O)C#Cc1ccc([N+](=O)[O-])cc1
Ans. inactive

Qu. Identify the outcome logged in this assay for the compound shown: c1ccncc1
Ans. inactive

====

- Test system: COLO 205
- measurement description: NCI tumour cell line growth inhibition, 48 h
Calls of active or inactive are those of the source. Rule as the data show it: active = GI50 up to about 1.1 µM and inactive = higher.
Measured GI50 of individual entries

Known results for molecules:
Qu. Consider the molecule N#C/C(=C1\OC(=O)C(c2ccc(Br)cc2)=C1O)c1ccc(Br)cc1 and give its measured GI50.
Ans. 17.9 µM (inactive)

Qu. Consider the molecule COc1cccc(C2c3cc4c(cc3OC(N3CCCC3)C2C)OCO4)c1O (stereo unspecified) and give its measured GI50.
Ans. 3.37 µM (inactive)

Qu. Consider the molecule O=C1c2ccccc2C(=O)N1C/C=N/NS(=O)(=O)c1ccc(Br)cc1 and give its measured GI50.
Ans. > 100 µM (inactive)

Qu. Consider the molecule CCOC(=O)C(C)(C)/C=C\C(Cl)=C(Cl)Cl and give its measured GI50.
Ans. > 100 µM (inactive)

Qu. Consider the molecule Cc1ccc(S(=O)(=O)NC(=O)NNc2ccc(F)cc2)cc1 and give its measured GI50.
Ans. > 100 µM (inactive)

---
Qu. Consider the molecule COc1ccc(/C=C/c2ccnc3ccccc23)c(OC)c1 and give its measured GI50.
Ans. 4.34 µM (inactive)

Qu. Consider the molecule COC(=O)C1=C(C(=O)OC)SC(=C2SC3=C(SC(=C4SCCS4)S3)S2)S1 and give its measured GI50.
Ans. > 100 µM (inactive)

Qu. Consider the molecule CCN1CN(c2ccccc2)C2(CCN(CCCSc3ccc(F)cc3)CC2)C1=O and give its measured GI50.
Ans. 2.41 µM (inactive)

====

- Test system: NCI-H226
- measurement description: NCI tumour cell line growth inhibition, 48 h
Activity calls are given as the source filed them. No stated cut-off is given here; in the data, active = GI50 up to about 1.1 µM and inactive = higher.
Measured GI50 of individual entries

Known results for molecules:
Qu. Consider the molecule CCOC(=O)/C=C1/C(CCCOCc2ccccc2)C2CCCC23CC2(CCN13)OCCO2 (stereo not drawn) and give its measured GI50.
Ans. 22.6 µM (inactive)

Qu. Consider the molecule Clc1cc(OCc2nn3c(Cc4ccccc4)nnc3s2)c(Cl)cc1OCc1nn2c(Cc3ccccc3)nnc2s1 and give its measured GI50.
Ans. > 100 µM (inactive)

Qu. Consider the molecule CC(=O)OCCc1cccnc1/C=N/O and give its measured GI50.
Ans. 77.6 µM (inactive)

---
Qu. Consider the molecule O=C(Cc1nc2ccccc2s1)Nc1cccc(C(F)(F)F)c1 and give its measured GI50.
Ans. 21.8 µM (inactive)

Qu. Consider the molecule N/C(=N\O)N/N=C/c1ncccc1O and give its measured GI50.
Ans. 18.7 µM (inactive)

Qu. Consider the molecule O=C(O)CC1CC=C[C@H]2c3cc4c(cc3C(=O)NC12)OCO4 (stereo partly drawn) and give its measured GI50.
Ans. 44.7 µM (inactive)

Qu. Consider the molecule CC1=CC(=O)C(=O)C2=C1OC1(C2)C(C)CCC2C3(C)CCC(O)C(C)(C)C3CCC21C (stereo not drawn) and give its measured GI50.
Ans. 18.2 µM (inactive)

Qu. Consider the molecule COc1ccc(C2C3=CONC3CC3CCCCC32)cc1 (stereo not drawn) and give its measured GI50.
Ans. > 100 µM (inactive)

Qu. Consider the molecule O=C1OS2(OC(=O)c3cccc4cccc2c34)c2ccccc21 (stereo not drawn) and give its measured GI50.
Ans. > 100 µM (inactive)

====

- Test system: SF-539
- measurement description: NCI tumour cell line growth inhibition, 48 h
Activity calls are given as the source filed them. No stated cut-off is given here; in the data, active = GI50 up to about 1.1 µM and inactive = higher.
API: response.call in True for active, False for inactive

Example cases with answers are listed next.
Qu. Identify the outcome logged in this assay for the molecule shown: COC(=O)/C=C(\S/C(=N\n1cc(C(=O)OC)c(C(=O)OC)c1-c1ccc(C)cc1)c1ccc(C)cc1)C(=O)OC
Ans. False

Qu. Identify the outcome logged in this assay for the molecule shown: COC(=O)C1C(C(=O)OC)C2(OC(c3ccc(Cl)cc3)=CC2=O)C12OC(c1ccc(Cl)cc1)=CC2=O (stereo not given)
Ans. False

Qu. Identify the outcome logged in this assay for the molecule shown: ClC1=C(Cl)C2OC3C=CCC3OC2C(Cl)=C1Cl (stereo not given)
Ans. False

Qu. Identify the outcome logged in this assay for the molecule shown: COc1cc(C(=O)OCCn2[nH]c(-c3ccc(Cl)cc3)nc2=S)cc(OC)c1OC
Ans. False

---
Qu. Identify the outcome logged in this assay for the molecule shown: O=c1oc2c3ccc4ccccc4c3n(Cc3nc4ccccc4[nH]3)c2c2ccccc12
Ans. False

Qu. Identify the outcome logged in this assay for the molecule shown: COc1ccc(CN2CCC/C=C/CC(Cl)(Cl)C2=O)cc1
Ans. False

Qu. Identify the outcome logged in this assay for the molecule shown: CN(C)CCNc1ccc2ncn3c4ccc(O)cc4c(=O)c1c23
Ans. True

Qu. Identify the outcome logged in this assay for the molecule shown: c1csc(-c2cc(-c3cccs3)c(-c3ccsc3)s2)c1
Ans. False

Qu. Identify the outcome logged in this assay for the molecule shown: Clc1cc(N/N=C(\c2ccccc2)c2ccccn2)ncn1
Ans. True

Qu. Identify the outcome logged in this assay for the molecule shown: COc1ccc2nc3c(C)cc4ccccc4n3c2c1
Ans. False
